Test system: 317291-083-R-J1-PDC complex spheroid growth;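 note: compound exposure lasted seven days after spheroids formed for three days; 100% = DMSO vehicle control wells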
Assay: Anticancer human tumor 317291-083-R-J1-PDC patient-derived soft tissue sarcoma cell line growth inhibition [Asc]
Conditions: second compound 0.1 µM; first compound 0.0316 µM; hits give low values
Below is a list of entries, each paired with its recorded viability, T/C value.
Write down the numeric answer in % and omit the unit.

Solved entries:
compound	measured on	recorded value
C=C(F)C(=O)N1CCN(c2nc(OCC3CCCN3C)nc3c2CCN(c2cccc4cccc(Cl)c24)C3)CC1CC#N (stereo not drawn) + Cc1c(S(C)(=O)=O)c(-c2cc(F)cc(N3CCN(c4ccc(NS(=O)(=O)c5ccc(NC(CCN6CCC(C(=O)OCCCP(=O)(O)O)CC6)CSc6ccccc6)c(S(=O)(=O)C(F)(F)F)c5)cc4)CC3)c2)c(-c2ccc(Cl)cc2)n1C(C)C	317291-083-R-J1-PDC complex spheroid growth	113
O=C(c1cc(Cc2n[nH]c(=O)c3ccccc23)ccc1F)N1CCN(C(=O)C2CC2)CC1 + CNC(C)C(=O)NC1CN(S(=O)(=O)c2cccc(S(=O)(=O)N3CCC4CCC(C(=O)NC(c5ccccc5)c5ccccc5)N4C(=O)C(NC(=O)C(C)NC)C3)c2)CCC2CCC(C(=O)NC(c3ccccc3)c3ccccc3)N2C1=O	317291-083-R-J1-PDC complex spheroid growth	78.5

Alright, here's another compound for you.
Please look at this compound and report its viability, T/C: CCN1CCN(Cc2ccc(Nc3ncc(F)c(-c4cc(F)c5nc(C)n(C(C)C)c5c4)n3)nc2)CC1 + CNC(C)C(=O)NC1CN(S(=O)(=O)c2cccc(S(=O)(=O)N3CCC4CCC(C(=O)NC(c5ccccc5)c5ccccc5)N4C(=O)C(NC(=O)C(C)NC)C3)c2)CCC2CCC(C(=O)NC(c3ccccc3)c3ccccc3)N2C1=O 53.8
